Every entry's value here was drawn from ChEMBL document CHEMBL1201862.

- System: NCI-H522
- procedure.text: NCI tumour cell line growth inhibition, 48 h
Activity calls are given as the source filed them. No stated cut-off is given here; in the data, active = GI50 up to about 1.1 µM and inactive = higher.
Assign GI50 to each entry below.

Examples with their reported GI50 follow.
O=C1c2ccccc2C(=O)c2c1ccc1c2N=C(c2ccc(F)cc2)CC(c2ccc(Cl)c(Cl)c2)N1 (stereo not given) = 7.29 µM (inactive)
O=C(c1cccnc1)N1N=C(c2ccc(Cl)cc2)CC1(O)c1cc(F)c(Cl)cc1Cl (stereo not given) = 19.5 µM (inactive)
COc1cc(OC)c(SSCCCCS(=O)O)c(OC)c1 = 6.65 µM (inactive)
C[Si](C)(C)CCOCN(C(=O)C1=CCC2(CC1)OCCO2)c1ccccc1I = 21.1 µM (inactive)
COC(=O)C1Cc2c(n(C)c3ccccc23)C(c2ccccc2)N1 (stereo not given) = 16.9 µM (inactive)
COCc1cc2c(s1)C(=O)C1=C(C2=O)C2(C=C(Br)C(=O)C(Br)=C2)CCN1 = 2.39 µM (inactive)

Please supply GI50 for each of the following items, keeping them in order.
1. CC1C[C@H](C)CC(C(O)CC2CC(=O)N(Cc3ccccc3)C(=O)C2)C1O (stereo not given in full)
2. Cc1c(C)c([N+](=O)[O-])c2c(c1N)C(=O)c1ccccc1C2=O

1: > 100 µM (inactive); 2: 61.7 µM (inactive)

Below are some molecules; for each one, tell me its GI50.
1. C1=CN2C[n+]3cccc(OCc4ccccc4)c3N=C2C(OCc2ccccc2)=C1
2. O=C1C(NCCc2cc(Cl)c(O)c(Cl)c2)=CC(=O)c2[nH]cnc21

1. 2.65 µM (inactive)
2. 12.8 µM (inactive)
